pIC50: −log10 of the molar value.
Compiled from multiple publications: pIC50 readings for Vasopressin V2 receptor (Rattus norvegicus).
Label t when pIC50 >= 6; otherwise f.

[
  {
    "molecule": "CC1(C)C2CC[C@@]1(CS(=O)(=O)N1CCC3(CCc4ccccc43)CC1)[C@@H](NC(=O)[C@@H](N)CCS(C)(=O)=O)C2",
    "system-name": "Vasopressin V2 receptor (Rattus norvegicus)",
    "answer-label": "f"
  },
  {
    "molecule": "CC1(C)[C@@H]2CC[C@@]1(CS(=O)(=O)N1CCC3(C=Cc4ccccc43)CC1)[C@@](O)(CNC(=O)Cc1ccccn1)C2",
    "system-name": "Vasopressin V2 receptor (Rattus norvegicus)",
    "answer-label": "f"
  },
  {
    "molecule": "CCC(C)(C)C(=O)NCC[C@@]1(O)C[C@H]2CC[C@]1(CS(=O)(=O)N1CCC3(C=Cc4ccccc43)CC1)C2(C)C",
    "system-name": "Vasopressin V2 receptor (Rattus norvegicus)",
    "answer-label": "f"
  },
  {
    "molecule": "CC1(C)[C@@H]2CC[C@@]1(CS(=O)(=O)N1CCC3(CCc4ccccc43)CC1)[C@@H](NC(=O)CCc1c[nH]cn1)C2",
    "system-name": "Vasopressin V2 receptor (Rattus norvegicus)",
    "answer-label": "f"
  },
  {
    "molecule": "O=C(Nc1ccc(C(=O)N2CCCN(Cc3ccccc3)c3sccc32)cc1)c1ccccc1-c1ccccc1",
    "system-name": "Vasopressin V2 receptor (Rattus norvegicus)",
    "answer-label": "t"
  },
  {
    "molecule": "CC1(C)[C@@H]2CC[C@@]1(CS(=O)(=O)N1CCC3(CCc4ccccc43)CC1)[C@@H](NC(=O)C1CCCCC1)C2",
    "system-name": "Vasopressin V2 receptor (Rattus norvegicus)",
    "answer-label": "f"
  },
  {
    "molecule": "CC1(C)[C@@H]2CC[C@@]1(CS(=O)(=O)N1CCC3(C=Cc4ccccc43)CC1)[C@@](O)(CNC(=O)NC1CCCCC1)C2",
    "system-name": "Vasopressin V2 receptor (Rattus norvegicus)",
    "answer-label": "f"
  },
  {
    "molecule": "CC1(C)C2CC[C@@]1(CS(=O)(=O)N1CCC3(CCc4ccccc43)CC1)[C@@H](NC(=O)[C@@H](N)CCC(N)=O)C2",
    "system-name": "Vasopressin V2 receptor (Rattus norvegicus)",
    "answer-label": "f"
  }
]

Identify whether the reported pIC50 of the following molecule is 6 or greater: CC1(C)[C@@H]2CC[C@@]1(CS(=O)(=O)N1CCC3(C=Cc4ccccc43)CC1)[C@@](O)(CNC(=O)C(N)CCS(C)(=O)=O)C2 (some centres undefined)
f

Identify whether the reported pIC50 of the following molecule is 6 or greater: "Cn1cnc(CC(=O)N[C@@H](CCC(N)=O)C(=O)N[C@H]2C[C@H]3CC[C@]2(CS(=O)(=O)N2CCC4(CCc5ccccc54)CC2)C3(C)C)c1"
t
